biological target: IDO1 (Homo sapiens); experiment: IDO1 Cellular Assay in HeLa Cells Stimulated with IFNγ; assay type: cell-based; settings: read-out: Hela IC50
Sequence (P14902 whole entry): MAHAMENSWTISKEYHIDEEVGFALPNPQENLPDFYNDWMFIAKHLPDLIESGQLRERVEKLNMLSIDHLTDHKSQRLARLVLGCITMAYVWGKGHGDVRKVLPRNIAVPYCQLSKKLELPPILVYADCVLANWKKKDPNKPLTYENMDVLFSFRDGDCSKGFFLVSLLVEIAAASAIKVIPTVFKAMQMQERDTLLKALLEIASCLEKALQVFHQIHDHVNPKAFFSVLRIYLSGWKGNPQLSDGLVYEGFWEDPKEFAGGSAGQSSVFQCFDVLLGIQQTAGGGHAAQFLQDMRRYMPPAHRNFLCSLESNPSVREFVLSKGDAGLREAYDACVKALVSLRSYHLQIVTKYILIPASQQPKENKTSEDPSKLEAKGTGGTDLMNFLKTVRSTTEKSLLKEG
Result Type: IC50 (nM)

As a guide, the following entries are already answered.
[
  {
    "Molecule": "CC(NC(=O)c1ccc(Cl)cc1)c1ccc2c(n1)CCCN2C(=O)OCC(F)(F)F (stereo not shown) [Example 310]",
    "IC50 [nM]": 1.61
  },
  {
    "Molecule": "Cc1nccc(N2CCCc3nc(C(C)C(=O)Nc4ccc(F)cc4)ccc32)n1 (stereo not shown) [Example 371]",
    "IC50 [nM]": 2.72
  },
  {
    "Molecule": "Cc1nccc(N2CCCc3nc(C(C)C(=O)Nc4ccc(Cl)cc4)ccc32)n1 (stereo not shown) [Example 363]",
    "IC50 [nM]": 0.93
  },
  {
    "Molecule": "COCCOC(=O)N1CCCc2nc(C3(NC(=O)c4ccc(Cl)cc4)CCC3)ccc21 [Example 413]",
    "IC50 [nM]": 3.79
  }
]

[A] Cc1nccc(N2CCCc3nc(C4(C(=O)Nc5ccc(F)cc5)CC(F)(F)C4)ccc32)n1 [Example 420]
[B] O=C(N[C@H](c1ccc2c(n1)CCCN2C(=O)C1CC1)C(F)(F)F)c1ccc(F)cc1 [Example 424]
[C] COc1cccc(N2CCCc3nc(C(C)NC(=O)c4ccc(Cl)cc4)ccc32)n1 (stereo not shown) [Example 352]
[D] CC(NC(=O)c1ccc(F)cc1)c1ccc2c(n1)CCCN2c1ccn2nccc2n1 (stereo not shown) [Example 368]
# rank_down: sort by IC50, max first Please write the labels in the order that was asked for.
B, D, C, A
